Values from patent US9833497B2

tested on: Moraxella catarrhalis; assay: MIC against Gram-negative bacteria: Moraxella catarrhalis; type: cell-based; settings: M. catarrhalis; 10 h cultivation at 37° C.
MIC values for the substances below.
Write down the numeric answer in µg/mL and omit the unit.

Some entries whose results are on file:
• PRT936 (VLAPCSPNPCENAAVCKESPNFESYTCLCAPGWQGQRCT; listed as Homo sapiens) = 12.5
• PRT1000 (ELGGCISAPCAHGGTCYPQPSGYNCTCPTGYTGPTCS; listed as Homo sapiens) = 25
• PRT949 (FVDVCPQMPCLNGGTCAVASNMPDGFICRCPPGFSGARCQ; listed as Homo sapiens) = 25
• PRT1013 (LEDPCPPSFCSKRGRCHIQASGRPQCSCMPGWTGEQCQ; listed as Homo sapiens) = 25
• PRT926 (EINECQSNPCVNNGQCVDKVNRFQCLCPPGFTGPVCQ; listed as Homo sapiens) = 25
• PRT955 (DVDECLLQPNACQNGGTCANRNGGYGCVCVNGWSGDDCS; listed as Homo sapiens) = 12.5
• PRT964 (NIDDCASNPCTFGVCRDGINRYDCVCQPGFTGPLCN; listed as Homo sapiens) = 25
• PRT967 (ARDACESQPCRAGGTCSSDGMGFHCTCPPGVQGRQCE; listed as Homo sapiens) = 25

Query string: // query MIC value for entry PRT997 (EVDECLSDPCPVGASCLDLPGAFFCLCPSGFTGQLCE; listed as Homo sapiens)
Result string: 12.5

Query string: // query MIC value for entry PRT922 (LQCRDGYEPCVNEGMCVTYHNGTGYCKCPEGFLGEYCQ; listed as Homo sapiens)
Result string: 25

Query string: // query MIC value for entry PRT1005 (LMDLCAQKPCPRNSHCLQTGPSFHCLCLQGWTGPLCN; listed as Homo sapiens)
Result string: 12.5

Query string: // query MIC value for entry PRT895 (NIDECAGNPCHNGGTCEDGINGFTCRCPEGYHDPTCL; listed as Homo sapiens)
Result string: 50

Query string: // query MIC value for entry PRT987 (NVDDCPGHRCLNGGTCVDGVNTYNCQCPPEWTGQFCT; listed as Homo sapiens)
Result string: 12.5

Query string: // query MIC value for entry PRT1041 (VPLCAQECVHGRCVAPNQCQCVPGWRGDDCS; listed as Homo sapiens)
Result string: 50

Query string: // query MIC value for entry PRT973 (DLPDCSPSSCFNGGTCVDGVNSFSCLCRPGYTGAHCQ; listed as Homo sapiens)
Result string: 12.5

Query string: // query MIC value for entry PRT1031 (MCVTYHNGTGYCKCPEGFLGEYCQ; listed as Homo sapiens)
Result string: 12.5

Query string: // query MIC value for entry PRT900 (VLAPCAPSPCRNGGECRQSEDYESFSCVCPTGWQGQTCE; listed as Homo sapiens)
Result string: 25

Query string: // query MIC value for entry PRT947 (NIDDCARGPHCLNGGQCMDRIGGYSCRCLPGFAGERCE; listed as Homo sapiens)
Result string: 12.5

Query string: // query MIC value for entry PRT930 (NFDDCASNPCIHGICMDGINRYSCVCSPGFTGQRCN; listed as Homo sapiens)
Result string: 50

Query string: // query MIC value for entry PRT898 (NNNECESNPCVNGGTCKDMTSGYVCTCREGFSGPNCQ; listed as Homo sapiens)
Result string: 12.5
